Biological target: T1, extracellular domain of human IL-36R (human, UniProt Q9HB29 20-335)
T1 construct: extracellular domain; Immobilised on the chip in the BIACORE assay; soluble and bead-coupled in the KINEXA assay; also called soluble human IL-36R extracellular domain
T1 sequence (looked up): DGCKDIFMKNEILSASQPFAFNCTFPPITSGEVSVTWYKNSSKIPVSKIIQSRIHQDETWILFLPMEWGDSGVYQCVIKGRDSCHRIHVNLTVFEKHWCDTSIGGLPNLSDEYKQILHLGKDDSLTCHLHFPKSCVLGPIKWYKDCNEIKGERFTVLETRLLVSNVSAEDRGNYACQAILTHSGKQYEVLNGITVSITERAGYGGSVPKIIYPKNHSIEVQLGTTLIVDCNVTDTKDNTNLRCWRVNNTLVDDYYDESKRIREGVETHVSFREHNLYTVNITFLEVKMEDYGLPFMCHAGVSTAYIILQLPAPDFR
Assay: KINEXA 3000 solution-phase equilibrium, soluble human IL-36R extracellular domain
pKd: −log10 of the molar value.
experimental.readout: pKd

INSERT INTO results (binder, value) VALUES
  ('Humanized (HzD) 1D9 (APE5281) (antibody, V domains shown, also called 1D9 Humanized) VH: QVQLMQSGAEVKKPGASVKVSCKASGFTFTSYDINWVRQAPGQRLEWMGWIYPGDSSTKYNEKFKGRVTITADKSANTAYMELASLRSEDTAVYFCTRSFYTMDYWGQGTTVTVSS VL: DIVMTQSPLSLPVTPGEPASISCRSSKSLLHSNANTYLYWFLQKPGQSPQLLISRMSNLASGVPDRFSGSGSGTDFTLKISRVEAEDVGVYYCMQHLEYPFTFGQGTKLEIK', 11.10),
  ('Hzd 5D3 (APE6155) (antibody, V domains shown, also called APE6917; APE06155) VH: QVQLVQSGAEVKKPGASVKVSCKASGYTFTNYWMNWVRQAPRQGLEWMGMFHPTGDVTRLNQKFKDRVTMTRDTSTSTVYMELSSLRSEDTAVYYCARTTSMIIGGFAYWGQGTLVTVSS VL: DIVMTQTPLSLSVTPGQPASISCRSSKSLLHRNAITYFYWYLHKPGQPPQLLIYQMSNLASGVPDRFSGSGSGTDFTLKISRVEAEDVGVYYCAQNLELPLTFGGGTKVEIK', 9.77),
  ('Hzd 18D4 (APE7247) (antibody, V domains shown, also called APE6903; APE07247) VH: DVQFQESGPGLVKPSQTLSLTCTVTGYSITADFAWNWIRQPPGKGLEWIGYISYSGDTNYNPSLKSRVTITRDTSKNQFSLKLSSVTAADTAVYFCAIRGPYSFTYWGQGTLVTVSS VL: DIQMTQSPSSLSASVGDRVTITCRASQWINNYLNWYQQKPGKAPKLLIYYTSMLHSGVPSRFSPSGSGNDYTFTISSLQPEDIATYYCQQGHTLPWTFGGGTKVEIKR', 10.00),
  ('APE6904 (antibody, V domains shown, also called 18D4 Humanized) VH: DLQFQESGPGLVKPSQTLSLTCTVTGYSITADFAWNWIRQPPGKGLEWIGYISYSGDTNYNPSLKSRVTITRDTSKNQFSLKLSSVTAADTAVYFCAIRGPYSFTYWGQGTLVTVSS VL: DIQMTQSPSSLSASVGDRVTITCRASQWINNYLNWYQQKPGKAPKLLIYYTSMLHSGVPSRFSPSGSGNDYTFTISSLQPEDIATYYCQQGHTLPWTFGGGTKVEIKR', 10.57);
